All values here come from patent US20230322953A1.

assayed.target: T1, human BCMA (human, UniProt Q02223 1-184)
T1 construct: whole, on cells; the cell line is named under assay; also called TNFRSF17; CD269
T1 sequence (looked up): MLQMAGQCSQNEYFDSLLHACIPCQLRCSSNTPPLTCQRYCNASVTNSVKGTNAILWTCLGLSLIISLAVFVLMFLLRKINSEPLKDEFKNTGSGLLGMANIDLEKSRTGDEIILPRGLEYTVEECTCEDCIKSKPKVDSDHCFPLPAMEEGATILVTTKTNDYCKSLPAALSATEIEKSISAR
assay.notes: flow cytometry, NCI-H929 cells
Recorded Maximum MFI for the following binders

{"binder": "PR001046, anti-BCMA HCAb antibody, clone 1005P63B7 (antibody, human IgG1, V domains shown, Heavy-chain-only antibody (HCAb), human IgG1 Fc, no light chain) VH: EVQLVETGGGLIQPGGSLRLSCAASGFTVSDNYMTWVRQAPGKGLEWVSVIFSGGNTYYADSVKGRFTISRDNAKNTLYLQMNSLRAEDTALYYCARRNYDDTRGTDVFDIWGQGTMVTVSS", "Maximum MFI": 133000}
{"binder": "PR000274, anti-BCMA monoclonal antibody CA8-J6M0 (antibody, human IgG1, kappa, V domains shown, Control antibody; also called Positive control 1; CA8-J6M0 hIgG1) VH: QVQLVQSGAEVKKPGSSVKVSCKASGGTFSNYWMHWVRQAPGQGLEWMGATYRGHSDTYYNQKFKGRVTITADKSTSTAYMELSSLRSEDTAVYYCARGAIYDGYDVLDNWGQGTLVTVSS VL: DIQMTQSPSSLSASVGDRVTITCSASQDISNYLNWYQQKPGKAPKLLIYYTSNLHSGVPSRFSGSGSGTDFTLTISSLQPEDFATYYCQQYRKLPWTFGQGTKLEIKR", "Maximum MFI": 125000}
{"binder": "PR000943, anti-BCMA HCAb antibody, clone 1005P16A10 (antibody, human IgG1, V domains shown, Heavy-chain-only antibody (HCAb), human IgG1 Fc, no light chain) VH: EVQLVETGGGLIQPGGSLRLSCAASGFPVSSNYMSWVRQAPGKGLEWVSVIFSGGRTYYADSVKGRFTISRDNSKNTLYLQMNSLRAEDTAVYYCARRNWIDGRDAFDIWGQGTMVTVSS", "Maximum MFI": 166000}
{"binder": "PR000940, anti-BCMA HCAb antibody, clone 1005P10H8 (antibody, human IgG1, V domains shown, Heavy-chain-only antibody (HCAb), human IgG1 Fc, no light chain) VH: EVQLLESGGGLVQPGGSLRLSCAASGFTFSSYAMIWVRQAPGKGLEWVSGISESGGSTYYADSVKGRFTISRDNSKNTLYLQMNSLRAEDTAVYFCVKDLDDILTGYYKDYWGQGTLVTVSS", "Maximum MFI": 91000}
{"binder": "PR001035, anti-BCMA HCAb antibody, clone 1005P36F3 (antibody, human IgG1, V domains shown, Heavy-chain-only antibody (HCAb), human IgG1 Fc, no light chain) VH: EVQLVETGGGLIQPGGSLRLSCAASGFTVSSNYMTWVRQAPGKGLEWVSVIFSGGSTYYADSVKGRFTISRDNSKNTLYLQMNSLRAEDTAVYYCARRIAVAGHDVFDIWGQGTMVTVSS", "Maximum MFI": 113000}
